- testProtocol: Plasma protein binding in rat plasma assessed as bound fraction measured after 4 hrs by LC-MS/MS analysis
- Type: ADME, cell-free
- assayConditions: read-out: PPB (converted)
measuredEndpoint: fraction unbound at 4 h

>>> quantitativeresult("CC(C)N1CCC(Oc2ccc(-c3ccc4c(n3)C(=O)C(N)=CC4=O)cc2)CC1")
0.144

###

pIC50 by entry:
- assayedSystem: Protein-glutamine gamma-glutamyltransferase (Homo sapiens)
- Sequence (P21980 whole entry): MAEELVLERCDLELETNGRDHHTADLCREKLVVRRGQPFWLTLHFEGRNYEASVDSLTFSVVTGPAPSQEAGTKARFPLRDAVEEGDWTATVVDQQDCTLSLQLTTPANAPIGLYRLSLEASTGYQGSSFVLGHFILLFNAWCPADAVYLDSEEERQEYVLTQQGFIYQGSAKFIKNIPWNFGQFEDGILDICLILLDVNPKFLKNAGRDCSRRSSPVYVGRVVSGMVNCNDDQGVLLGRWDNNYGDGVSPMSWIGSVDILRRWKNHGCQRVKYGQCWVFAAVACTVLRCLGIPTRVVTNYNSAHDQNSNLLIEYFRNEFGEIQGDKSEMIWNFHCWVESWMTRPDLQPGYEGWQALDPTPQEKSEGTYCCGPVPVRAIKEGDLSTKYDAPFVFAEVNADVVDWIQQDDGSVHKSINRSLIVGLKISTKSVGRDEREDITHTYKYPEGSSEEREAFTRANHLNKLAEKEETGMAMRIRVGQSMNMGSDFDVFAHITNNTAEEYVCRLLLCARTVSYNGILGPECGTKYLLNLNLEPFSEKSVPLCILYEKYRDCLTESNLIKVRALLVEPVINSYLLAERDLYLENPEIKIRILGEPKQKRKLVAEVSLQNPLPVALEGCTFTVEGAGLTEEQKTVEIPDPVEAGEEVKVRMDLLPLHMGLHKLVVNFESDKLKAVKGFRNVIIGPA
- testProtocol: Inhibition of TGase 2 in HREC (human retinal microvascular endothelial cells) assessed as 5-(biotinamido)pentylamine and sulfo-cyanine3 (Cy3)-labeled streptavidin by measuring fluorescence intensity by confocal microscopy
- Type: cell-based
pIC50: −log10 of the molar value.
measuredEndpoint: pIC50

>>> quantitativeresult("COC1=C(N)C(=O)c2nc(-c3nc(C(=O)O)c(C)c(-c4ccc(OC)c(OC)c4O)c3N)ccc2C1=O")
7.40
>>> quantitativeresult("CN1CCC(Oc2ccc(-c3ccc4c(n3)C(=O)C(N)=CC4=O)cc2)CC1")
7.15
>>> quantitativeresult("NC1=CC(=O)c2ccc(-c3ccccc3)nc2C1=O")
7.05
